Recorded ED50 by entry
tested on: Escherichia coli; experiment: In vivo efficacy against Escherichia coli infected mice treated at 1 hr and 5 hr post infection; type: functional; settings: Escherichia coli; read-out: ED50
State the answer as a number, implicitly in mg/kg.

LINE_NOTATION | UNIT_TEXT | ED50
CO/N=C(\C(=O)N[C@@H]1C(=O)N2C(C(=O)[O-])=C(C[n+]3ccc4ccsc4c3)CS[C@H]12)c1csc(N)n1 | mg/kg | 0.02

Value lookup for ED50; key = CO/N=C(\C(=O)N[C@@H]1C(=O)N2C(C(=O)[O-])=C(C[n+]3ccc4ccccc4c3)CS[C@H]12)c1csc(N)n1
0.04

---

species: Cavia porcellus; experiment: In vitro relative anticholinergic activity in isolated guinea pig trachea; format: functional; conditions: read-out: pA2 (converted)
MEASUREMENT_NAME: Kb (µM)
Answer with a number only, understood to be in µM.

LINE_NOTATION | Kb / µM
CO/N=C(\C(=O)N[C@@H]1C(=O)N2C(C(=O)[O-])=C(C[n+]3ccccc3)CS[C@H]12)c1csc(N)n1 | 490
CO/N=C(\C(=O)N[C@@H]1C(=O)N2C(C(=O)[O-])=C(C[n+]3ccc4sc(C)nc4c3)CS[C@H]12)c1csc(N)n1 | 603
CO/N=C(\C(=O)N[C@@H]1C(=O)N2C(C(=O)[O-])=C(C[n+]3ccc4sccc4c3)CS[C@H]12)c1csc(N)n1 | 43.7

Here's the next entry for you.
Kb lookup needed for CO/N=C(\C(=O)N[C@@H]1C(=O)N2C(C(=O)[O-])=C(C[n+]3ccc4nc(C)sc4c3)CS[C@H]12)c1csc(N)n1 , thanks.
955

---

system: Escherichia coli; assay: In vivo efficacy against Escherichia coli infected mice treated at 1 hr and 5 hr post infection; type: functional
Entries and their measured ED50 follow.
State just the number; it will be interpreted in mg/kg.

See these solved cases before continuing.
MOLECULE | TARGET_OR_TEST_SYSTEM | ED50 [mg/kg]
CO/N=C(\C(=O)N[C@@H]1C(=O)N2C(C(=O)[O-])=C(C[n+]3ccc(CC(=O)NO)cc3)CS[C@H]12)c1csc(N)n1 (stereo in doubt; 21) | Escherichia coli | 0.07
CO/N=C(\C(=O)N[C@@H]1C(=O)N2C(C(=O)[O-])=C(C[n+]3ccc(CC(=O)NO)cc3)CS[C@H]12)c1csc(N)n1 (stereo in doubt; 7) | Escherichia coli | 0.04

Note: attention shifts to another entry.
Please give the measured ED50 for this molecule: CO/N=C(\C(=O)N[C@@H]1C(=O)N2C(C(=O)[O-])=C(C[n+]3ccc(CC(=O)NO)cc3)CS[C@H]12)c1csc(N)n1 (stereo in doubt; 13)
0.05

---

tested on: Enterobacter cloacae; test: Antibacterial activity against Enterobacter cloacae EB5; format: functional; conditions: Enterobacter cloacae; read-out: MIC
MEASUREMENT_NAME: MIC (µg/mL)
Express it in µg/mL; write the number only.

Before answering, review these 3 worked examples.
LINE_NOTATION | TARGET_OR_TEST_SYSTEM | MIC / µg/mL
CO/N=C(\C(=O)N[C@@H]1C(=O)N2C(C(=O)[O-])=C(C[n+]3cccc4cc[nH]c43)CS[C@H]12)c1csc(N)n1 | Enterobacter cloacae | 2
CO/N=C(\C(=O)N[C@@H]1C(=O)N2C(C(=O)O)=C(COC(C)=O)CS[C@H]12)c1csc(N)n1 | Enterobacter cloacae | 0.25
CO/N=C(\C(=O)N[C@@H]1C(=O)N2C(C(=O)[O-])=C(C[n+]3cscc3C)CS[C@H]12)c1csc(N)n1 | Enterobacter cloacae | 0.25

Would you kindly share the measured MIC for CO/N=C(\C(=O)N[C@@H]1C(=O)N2C(C(=O)[O-])=C(C[n+]3ccc4ccccc4c3)CS[C@H]12)c1csc(N)n1 ?
0.06
